molecular target: human GLP-1 receptor (human, UniProt P43220 24-463); test: cell-based or functional assay
Starred links: 1 amine or outer side, 2 acyl side, 3 side chain; linkers in the order of their positions; H or OH if unused. Non-standard residues stand in square brackets, D forms with d. Groups on a side chain read outwards from the residue. No end group written: not given here. *: point of attachment. C20 diacid = O=C(O)CCCCCCCCCCCCCCCCCCC(=O)*; γGlu = O=C(O)[C@H](CCC(=O)[*:2])N[*:1]; εLys = N[C@@H](CCCCN[*:1])C(=O)[*:2]; AEEA = NCCOCCOCC(=O)O; Aib = CC(C)(N)C(=O)O
quantity-kind: EC50, CreLuc assay, 0.5% hP (pM)
Note: unit pM is implicit; provide only the numeric part.

Solved cases (3 shown):
>  <binder>
Y[Aib]EGTFTSDYSI[Aib]LEKQAQ[Aib]AFVQWLIKGGQRYYASLRHYYNWLTRQRY-NH2 (not fully specified (residue 28); also: TFA salt) [Compound 6]

>  <quantity-kind>
EC50, CreLuc assay, 0.5% hP

>  <result-number>
900

$$$$
>  <binder>
YXEGTFTSDYSIXLEKQAQXAFVQWLIKGGPESGASLRHYYNWLTRQRY (Aib at 2, 13, 20; K28 side chain: C20DA-gGlu-gGlu-gGlu-gGlu-gGlu-OEG-OEG; C-terminal NH2) [Compound 32]

>  <quantity-kind>
EC50, CreLuc assay, 0.5% hP

>  <result-number>
70

$$$$
>  <binder>
YXEGTFTSDYSIXLEKQAQXAFVQWLIKGGPSSGESLRHYYNWLTRQRY (Aib at 2, 13, 20; K28 side chain: C20DA-gGlu-gGlu-gGlu-gGlu-gGlu-gGlu-eK; C-terminal NH2) [Compound 35]

>  <quantity-kind>
EC50, CreLuc assay, 0.5% hP

>  <result-number>
70

$$$$

In: Tell me the measured EC50, CreLuc assay, 0.5% hP of YXEGTFTSDYSIXLEEEAQXAFVEWLIKGGPSSGASLRHYYNWLTRQRY (Aib at 2, 13, 20; K28 side chain: C20DA-gGlu-gGlu-gGlu-gGlu-gGlu-gGlu-eLys; C-terminal NH2) [Compound 66] , please.
Out: 240

In: // next record YXEGTFTSDYSIXLEKQAQXAFVEWLIKGGPSSPQSLRHYYNWLTRQRY (Aib at 2, 13, 20; K28 side chain: C20DA-gGlu-gGlu-gGlu-gGlu-gGlu-gGlu-eLys; C-terminal NH2) [Compound 41]
Out: 60

In: // next record YXEGTFTSDYSIXLEKQAQXAFVEWLIKGGPSSAVSLRHYYNWLTRQRY (Aib at 2, 13, 20; K28 side chain: C20DA-gGlu-gGlu-gGlu-gGlu-gGlu-gGlu-eLys; C-terminal NH2) [Compound 33]
Out: 140

In: // next record YXEGTFTSDYSIXLEKQAQXAFVEWLIKGGPSSGASXRHYXNRXTRQRY (Aib at 2, 13, 20, 37, 41, 44; K28 side chain: C20DA-gGlu-gGlu-gGlu-gGlu-gGlu-gGlu-eLys; C-terminal NH2) [Compound 4]
Out: 90

In: // next record YXEGTFTSDYSIXLEKEAQXKFVEWLIKGGPSSGASLRHYYNWLTRQRY (Aib at 2, 13, 20; K28 side chain: C20DA-gGlu-gGlu-gGlu-gGlu-gGlu-gGlu-eLys; C-terminal NH2) [Compound 46]
Out: 210

In: // next record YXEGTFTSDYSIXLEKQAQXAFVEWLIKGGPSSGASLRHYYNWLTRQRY (Aib at 2, 13, 20; NMeR 48; K28 side chain: C20DA-gGlu-gGlu-gGlu-gGlu-gGlu-gGlu-eLys; C-terminal NH2) [Compound 83]
Out: 170

In: // next record YXEGTFTSDYSIXLEKQAQXAFVEWLIKGGPSSYVSLRHYYNWLTRQRY (Aib at 2, 13, 20; K28 side chain: C20DA-gGlu-gGlu-gGlu-gGlu-gGlu-gGlu-eLys; C-terminal NH2) [Compound 40]
Out: 460

In: // next record YXEGTFTSDYSIXLEKQAQXAFVEWLIKGGPSSGASLRHYXNRXTRQRY (Aib at 2, 13, 20, 41, 44; K28 side chain: C20DA-gGlu-gGlu-gGlu-gGlu-gGlu-gGlu-eLys; C-terminal NH2) [Compound 18]
Out: 120

In: // next record YXEGTFTSDYSIXLEKQAQXAFVQWLIKGGPSYYVSLRHYYNWLTRQRY (Aib at 2, 13, 20; K28 side chain: C20DA-gGlu-gGlu-gGlu-gGlu-gGlu-gGlu-eLys; C-terminal NH2) [Compound 19]
Out: 500

In: // next record YXEGTFTSDYSIXLEKQAQXAFVQWLIKGGPESPASLRHYYNWLTRQRY (Aib at 2, 13, 20; K28 side chain: C20DA-gGlu-gGlu-gGlu-gGlu-gGlu; C-terminal NH2) [Compound 11]
Out: 110

In: // next record YXEGTFTSDYSIXLEKQAQXAFVEWLIKGGPSSGASLRHYLNLXTRQRY (Aib at 2, 13, 20, 44; K28 side chain: C20DA-gGlu-gGlu-gGlu-gGlu-gGlu-gGlu-eLys; C-terminal NH2) [Compound 17]
Out: 140

In: // next record Y[Aib]EGTFTSDYSI[Aib]LEEQAQ[Aib]AFVQWLIK([εLys-AEEA-γGlu-γGlu-γGlu-γGlu-γGlu-C20 diacid])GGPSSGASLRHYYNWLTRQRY-NH2 (also: TFA salt) [Compound 45]
Out: 110

In: // next record YXEGTFTSDYSIXLEKQAQXAFVEWLIKGGPSYYVSLRHYYNWLTRQRY (Aib at 2, 13, 20; K28 side chain: C20DA-gGlu-gGlu-gGlu-gGlu-gGlu-gGlu-eLys; C-terminal NH2) [Compound 80]
Out: 1600

In: // next record YXEGTFTSDYSIXLEKQAQXAFVEWLIKGGPSSGASLRHYYNRXTRQRY (Aib at 2, 13, 20, 44; K28 side chain: C20DA-gGlu-gGlu-gGlu-gGlu-gGlu-gGlu-eLys; C-terminal NH2) [Compound 68]
Out: 120

In: // next record Y[Aib]EGTFTSDYSI[Aib]LEKQAQ[Aib]AFVQWLIK([εLys-Glu-γGlu-γGlu-γGlu-γGlu-C20 diacid])GGPEYYASLRHYYNWLTRQRY-NH2 (also: TFA salt) [Compound 23]
Out: 470

The values you see were collected from patent US20240247080A1.
